Source of measurements: patent US20060079453A1

# tgt: HLA-DR DRB1*0401 (DR4) (Homo sapiens, UniProt P01903+P01911, A100K/A169T/F76Y/I96L/K127E/L162R/M171V/N62H/P40V/Q125Y/R42H/S133A/S149N/S66Y/V115G/V209L/W38E)
# assayText: biochemical
# Type: binding
# studyConditions: DRB1 *0401
No end group written: not given here.
IC50 class ranges: low: < 200 nM; medium: ≥ 200 nM and < 1000 nM; high: ≥ 1000 nM

[
  {
    "sequence": "PEFLEQRRAAVDTYC",
    "answerLabel": "high"
  },
  {
    "sequence": "LDIYQKLYIKQEEQK",
    "answerLabel": "high"
  },
  {
    "sequence": "LRTLQQMLLGTLQVV",
    "answerLabel": "medium"
  },
  {
    "sequence": "VCGERGFFYTPKTRR",
    "answerLabel": "high"
  },
  {
    "sequence": "QWVLTAAHCLKKNSQ",
    "answerLabel": "high"
  },
  {
    "sequence": "IFAIFRQDSSSTGWN",
    "answerLabel": "low"
  }
]

query: Hey, which category is `VEALYLVTGERGFFY` in, do you know?
result: low

query: Which of the defined bands does the recorded IC50 of `LTELYFEKGEYFVEM` sit within?
result: high

query: Which of the defined bands does the recorded IC50 of `LKLVYRDDFPYAVCR` sit within?
result: low

query: # bin label for `YLAMPFATPMEAELARRSLA`
result: medium

query: # bin label for `GSHLVEALYLVCGER`
result: high

query: Form field 'band' for `LQLHVDKAVSGLRSL`
result: low

query: Determine which band this sequence sits in: `GRAVCGGVLVHPQWV`
result: high

query: Input `HYLKAKEDSHTAWTI` ; output its category
result: medium

query: Assign a category based on measured IC50 for `MIMIKFMGVIYIMII` and give only the class name.
result: medium

query: // bin(item) where item = NVNLQKQLLTNHLIN [NVNLQKQLLTNHLIN]
result: high

query: Bin? `QHLCGSHLVEALYLV`
result: high

query: Field: class (IC50) — entry: `RIVYRDGNPFAVCKV`
result: low

query: Which category fits this record: `DFSYLQDSDPDSFQD`
result: medium

query: Hi, small favor: classify `RVPVSHSFPHPLYNM` by its IC50 when you get a moment.
result: high

query: Exam item: assign `QKILIKIPVTKNIIT` to the correct category.
result: medium

query: Place this sequence in its band: `NGVLQGITSWGPEPC`
result: high

query: Bin? FVNQHLCGSHLVEAL [FVNQHLCGSHLVEAL]
result: high

query: Please let me know in which category the item `AAAAASAAAAAAA` belongs.
result: medium

query: // bin(item) where item = `QHLTGSHLVEALYLV`
result: high

query: State the band of `LWQLNGRLEYTLKDR`
result: medium
